Each recorded value in this set is attributed to BindingDB's records for doi:10.1016/j.bmcl.2012.12.028.

- SYSTEM_NAME: P-selectin (Homo sapiens, UniProt P16109)
- Sequence (P16109 whole entry): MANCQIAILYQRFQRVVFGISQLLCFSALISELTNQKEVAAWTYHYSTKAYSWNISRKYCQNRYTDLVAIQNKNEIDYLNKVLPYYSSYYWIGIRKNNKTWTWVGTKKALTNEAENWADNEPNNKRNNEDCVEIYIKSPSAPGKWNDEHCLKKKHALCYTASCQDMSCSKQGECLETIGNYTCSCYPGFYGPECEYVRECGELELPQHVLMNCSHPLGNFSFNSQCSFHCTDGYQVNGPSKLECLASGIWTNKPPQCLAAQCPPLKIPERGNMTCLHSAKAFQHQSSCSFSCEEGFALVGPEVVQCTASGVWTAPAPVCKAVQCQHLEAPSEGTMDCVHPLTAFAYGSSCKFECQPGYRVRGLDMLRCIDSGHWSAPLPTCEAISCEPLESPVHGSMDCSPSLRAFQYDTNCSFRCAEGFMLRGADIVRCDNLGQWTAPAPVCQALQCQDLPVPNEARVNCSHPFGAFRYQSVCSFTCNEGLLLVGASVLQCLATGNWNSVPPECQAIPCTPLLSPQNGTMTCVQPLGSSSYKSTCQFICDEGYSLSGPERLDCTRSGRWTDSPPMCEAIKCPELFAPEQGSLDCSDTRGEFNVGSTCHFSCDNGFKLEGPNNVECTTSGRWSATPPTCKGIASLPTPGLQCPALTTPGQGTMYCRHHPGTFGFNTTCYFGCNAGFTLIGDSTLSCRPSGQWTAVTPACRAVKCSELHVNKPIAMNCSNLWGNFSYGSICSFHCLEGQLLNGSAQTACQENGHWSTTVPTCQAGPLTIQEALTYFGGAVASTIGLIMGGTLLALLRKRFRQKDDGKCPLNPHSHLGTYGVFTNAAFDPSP
- METHOD_DESCRIPTION: Inhibition of P-selectin aggregation in platelet surface (unknown origin)
VALUE_KIND: pIC50
Give bare numbers, as −log10 of the molar value.

{"MOLECULE": "COc1ccccc1CNc1ncc(C(=O)NC2CCN(C)CC2)c(NC2CCCC2)n1", "SYSTEM_NAME": "P-selectin (Homo sapiens, UniProt P16109)", "pIC50": 5.82}
{"MOLECULE": "COc1ccccc1CNc1ncc(C(=O)NCCCO)c(NC2CCCC2)n1", "SYSTEM_NAME": "P-selectin (Homo sapiens, UniProt P16109)", "pIC50": 5.00}
{"MOLECULE": "CN1CCC(NC(=O)c2cnc(NCc3cc(Cl)ccc3Cl)nc2NC2CCC(N(C)C)CC2)CC1 (stereo not given)", "SYSTEM_NAME": "P-selectin (Homo sapiens, UniProt P16109)", "pIC50": 5.96}
{"MOLECULE": "O=C(NCCCN1CCOC1=O)c1cnc(NCc2cc(Cl)ccc2Cl)nc1NC1CCCC1", "SYSTEM_NAME": "P-selectin (Homo sapiens, UniProt P16109)", "pIC50": 5.13}

Query :: Give the reported value of pIC50 for this record: Cc1cc(-c2cnc(Nc3cc(Cl)cc(Cl)c3)nc2NC2CCC(N(C)C)CC2)on1 (stereo not given)
Result :: 6.00
